Value source: patent US20030181446A1

- MEASUREMENT_TARGET: human 5HT1A-serotonergic receptor (Homo sapiens)
- Construct: cell membranes
- Sequence (P08908 whole entry): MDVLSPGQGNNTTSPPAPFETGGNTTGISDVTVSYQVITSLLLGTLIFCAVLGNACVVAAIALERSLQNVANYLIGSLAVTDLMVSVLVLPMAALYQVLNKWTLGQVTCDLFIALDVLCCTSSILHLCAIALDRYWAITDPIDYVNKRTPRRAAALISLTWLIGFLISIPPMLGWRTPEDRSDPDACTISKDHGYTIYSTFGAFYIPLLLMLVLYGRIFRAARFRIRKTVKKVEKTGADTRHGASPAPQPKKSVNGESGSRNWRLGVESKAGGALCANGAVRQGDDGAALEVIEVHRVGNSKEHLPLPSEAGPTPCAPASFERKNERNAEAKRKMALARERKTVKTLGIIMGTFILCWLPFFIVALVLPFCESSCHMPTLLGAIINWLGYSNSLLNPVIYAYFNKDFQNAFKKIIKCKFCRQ
- PROTOCOL_DESCRIPTION: Radioligand binding to recombinant 5-HT1A receptors
- ASSAY_CONDITIONS: 1 nM [3H]8-OH-DPAT, membranes of HeLa cells transfected with human 5HT1A receptor; Ki from IC50 by Cheng & Prusoff; read-out: Binding affinity for 5HT1A receptors, Ki
MEASURED_PARAMETER: Ki (nM)
Note: unit nM is implicit; provide only the numeric part.

Prompt line: Form field: reported Ki of CC(C)Oc1cc(Cl)ccc1N1CCN(CC2CCc3ccccc3N2C(=O)C2CCCCC2)CC1 (stereo not shown) [Example 60A]
Response line: 10.1
